The measurements presented in this section are drawn from patent US20240279215A1.

Reported EC50 values for a set of compounds
- measured target: human NAMPT (Homo sapiens (Human))
- assay overview: NMN fluorescence biochemical assay (human recombinant NAMPT enzyme assay)

Q: I have this compound here, O=C(Nc1ccc(CC2CCN(C(=O)N3CCOCC3)CC2)cc1)OCc1cnco1 [Compound 458] , and I need its recorded EC50.
A: 15.2 µM

Q: Which EC50 is listed for O=C(Nc1ccc(CNC(=O)c2ccc(C(F)(F)F)nc2)cc1)OCc1ccc(Cl)cc1 [Compound 239] ?
A: 1.89 µM

Q: Need EC50, item O=C(Nc1ccc(Cc2ncccn2)cc1)OCc1ccc(Cl)cc1 [Compound 279]
A: 29 µM

Q: Query: EC50; subject: CC(=O)N1CCC(Cc2ccc(NC(=O)OCc3ccc(Cl)cc3)cc2)CC1 [Compound 40]
A: 2.4 µM

Q: I'd like to know its EC50. The compound in question is O=C(Nc1ccc(Cc2ccccn2)cc1)OCc1ccc(Cl)cc1 [Compound 233]
A: 7.8 µM

###

- measured target: human NAMPT (Homo sapiens (Human))
- assay overview: NMN fluorescence biochemical assay (human recombinant NAMPT enzyme assay)
# if measured AC1.4 Human < 0.5 µM: y  # else: n

* O=C(Nc1ccc(NS(=O)(=O)Cc2ccccc2)cc1)OCc1ccc(Cl)cc1 [Compound 33] | y
* Cc1ccc(C(=O)NCc2ccc(NC(=O)OCc3ccc(C(F)F)cc3)cc2)cn1 [Compound 133] | n
* CC(C)C(=O)N1CCC(Cc2ccc(NC(=O)OCc3cnco3)cc2)CC1 [Compound 35] | y

Here is another compound to look at.
Q: Does the reported AC1.4 Human of C[C@H](NC(=O)c1c(F)cncc1F)c1ccc(NC(=O)OCc2ccc(Cl)cc2)cc1 [Compound 57] stay below 0.5 µM?
A: n

###

- measured target: human NAMPT (Homo sapiens (Human))
- assay overview: NMN fluorescence biochemical assay (human recombinant NAMPT enzyme assay)
Label scheme for AC1.4 Human: lower than 2 µM is not fulfilled, 2 µM and above is fulfilled.

Before answering, review these 2 worked examples.
* O=C(Cc1ncco1)NCc1ccc(NC(=O)OCc2ccc(Cl)cc2)cc1 | fulfilled
* Cn1cc(C(=O)NCc2ccc(NC(=O)OCc3ccc(Cl)cc3)cc2)cn1 | not fulfilled

Q: Say whether `O=C(Cn1cccn1)NCc1ccc(NC(=O)OCc2ccc(Cl)cc2)cc1` shows AC1.4 Human of 2 µM or more.
A: fulfilled

Q: Assess whether reported AC1.4 Human for `CN1CC(=O)NC[C@@H]1c1ccc(NC(=O)OCc2ccc(Cl)cc2F)cc1` sits at 2 µM or higher.
A: not fulfilled

Q: Quick check: does `O=C(Nc1ccc(CNC(=O)c2ccnn2C2CCC2)cc1)OCc1ccc(Cl)cc1` have AC1.4 Human greater than or equal to 2 µM?
A: fulfilled

Q: Tell me whether AC1.4 Human is at least 2 µM here: `COc1cc(C(=O)NCc2ccc(NC(=O)OCc3ccc(Cl)cc3)cc2)cnc1C`
A: not fulfilled

Q: Does the molecule `CN(C)S(=O)(=O)N1CCC[C@H](c2ccc(NC(=O)OCc3cnco3)cc2)C1` have recorded AC1.4 Human that is 2 µM or more?
A: not fulfilled

###

- measured target: human NAMPT (Homo sapiens (Human), UniProt P43490)
- Sequence (P43490 whole entry): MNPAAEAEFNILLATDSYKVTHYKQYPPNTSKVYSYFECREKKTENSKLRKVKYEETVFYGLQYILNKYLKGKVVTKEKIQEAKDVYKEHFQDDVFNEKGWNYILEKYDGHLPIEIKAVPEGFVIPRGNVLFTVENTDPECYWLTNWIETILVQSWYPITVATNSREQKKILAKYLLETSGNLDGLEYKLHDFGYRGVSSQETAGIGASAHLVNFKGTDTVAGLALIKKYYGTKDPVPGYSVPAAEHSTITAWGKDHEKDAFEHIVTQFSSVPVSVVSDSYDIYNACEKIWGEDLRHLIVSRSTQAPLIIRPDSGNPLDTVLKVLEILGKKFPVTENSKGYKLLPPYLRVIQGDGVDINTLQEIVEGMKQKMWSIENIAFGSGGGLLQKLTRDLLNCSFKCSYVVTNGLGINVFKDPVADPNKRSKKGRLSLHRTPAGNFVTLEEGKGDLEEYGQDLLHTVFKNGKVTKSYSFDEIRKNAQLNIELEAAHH
- assay overview: NMN fluorescence biochemical assay (human recombinant NAMPT enzyme assay)
observed property: pEC50
Bear in mind: pEC50 is minus log10 of a mol/L concentration; give just that figure.

These solved cases illustrate the format of a correct answer.
• O=C(Nc1ccc(CC2CCN(CC(F)(F)F)CC2)cc1)OCc1cnco1 [Compound 70] = 4.64
• O=C(Cc1ccc(NC(=O)OCc2ccc(Cl)cc2)cc1)NCc1cnccn1 [Compound 300] = 4.58
• CC(=O)N1CCC[C@H](c2ccc(NC(=O)OCc3cnco3)cc2)C1 [Compound 375] = 4.27
• Cc1nocc1C(=O)NCc1ccc(NC(=O)OCc2ccc(Cl)cc2)cc1 [Compound 251] = 4.96
• Cn1cc(C(=O)NCc2ccc(NC(=O)OCc3ccc(Cl)cc3)cc2)cn1 [Compound 193] = 4.90

Now for another entry.
Q: Fill blank: measured pEC50 of the molecule Cc1noc(C(=O)N[C@@H](C)c2ccc(NC(=O)OCc3ccc(Cl)cc3)cc2)c1C [Compound 46] is ____.
A: 5.59

###

- measured target: human NAMPT (Homo sapiens (Human))
- assay overview: NMN fluorescence biochemical assay (human recombinant NAMPT enzyme assay)
The reader will find reported AC1.4 Human values listed item by item below.
Give your result in µM as a bare value.

Answered examples (3):
• C[C@H](NC(=O)C1COC1)c1ccc(NC(=O)OCc2ccc(Cl)cc2)cc1 = 0.97
• O=C(Nc1ccc(CN2CC3CC3C2=O)cc1)OCc1ccc(Cl)cc1 (stereo not shown) = 1.52
• O=C(Nc1ccc(CNC(=O)c2ccnn2C2CCOCC2)cc1)OCc1ccc(Cl)cc1 = 2.29

Q: Sample `Cc1ccc(Cc2ccc(NC(=O)OCc3cn[nH]c3)cc2)cn1` — what was its AC1.4 Human?
A: 0.58

###

- measured target: human NAMPT (Homo sapiens (Human), UniProt P43490)
- assay overview: NMN fluorescence biochemical assay (human recombinant NAMPT enzyme assay)
Listed here are compounds together with their documented AC1.4 Human.
Please format your answer as a value with the unit trailing.

• CN(C)C(=O)N1CCC(CCc2ccc(NC(=O)OCc3cnco3)cc2)CC1 = 0.38 µM
• O=C(Nc1ccc(CCN2CCN(C3COC3)CC2)cc1)OCc1cnco1 = 3.13 µM

Q: Value lookup for AC1.4 Human; key = `O=C(Nc1ccc(Cc2ccccc2)cc1)OCc1ccc(Cl)cc1`
A: 5.02 µM

###

- measured target: human NAMPT (Homo sapiens (Human), UniProt P43490)
- assay overview: NMN fluorescence biochemical assay (human recombinant NAMPT enzyme assay)
We label by threshold. Values of EC50 strictly beneath 10 µM are Fulfilled. Values of 10 µM and up are Not fulfilled.

Some solved entries appear below for comparison.
• O=C(Nc1ccc(CC2CCN(C(=O)C3CCC3)CC2)cc1)OCc1cnco1 = Not fulfilled
• N#Cc1ccc(COC(=O)Nc2ccc(Cc3ccncc3)cc2)cc1 = Not fulfilled

Q: Consider the compound `NC(=O)N1CCC(Cc2ccc(NC(=O)OCc3ccc(Cl)cc3)cc2)CC1` . Is its EC50 strictly less than 10 µM?
A: Fulfilled

Q: Strictly below 10 µM: is that where EC50 of COC(=O)N1CCC2(CC(Cc3ccc(NC(=O)OCc4cnco4)cc3F)C2)C1 (centres unmarked) sits?
A: Fulfilled

Q: Criterion: EC50 strictly below 10 µM. Is it met by `CC(=O)N1CCC(Cc2ccc(NC(=O)OCc3ccncc3)cc2)CC1` ?
A: Fulfilled

###

- measured target: human NAMPT (Homo sapiens (Human), UniProt P43490)
- assay overview: NMN fluorescence biochemical assay (human recombinant NAMPT enzyme assay)
The label Met is reserved for AC1.4 Human strictly under 0.9 µM; Not met covers values equal to or above it.

See these solved cases before continuing.
• CCC(=O)N1CCC(c2ccc(NC(=O)OCc3cnco3)cc2F)CC1 = Met
• O=C(Nc1ccc(CN2CCOC2=O)cc1)OCc1ccc(Cl)cc1 = Not met
• Cc1ccc(Cc2ccc(NC(=O)OCc3cncs3)cc2)cn1 = Not met
• O=C(Nc1ccc(CN2CCC3(CC3)C2=O)cc1)OCc1ccc(Cl)cc1 = Met
• CC(C)N1CC(=O)NC[C@@H]1c1ccc(NC(=O)OCc2ccc(Cl)cc2)cc1 = Not met

Q: Strictly below 0.9 µM in AC1.4 Human? COC(=O)N1CCC(Cc2ccc(NC(=O)OCc3cnco3)cc2)CC12CC2 (centres unmarked)
A: Met

Q: Confirm or reject: AC1.4 Human of `Cc1nn(C)c(C(=O)N[C@@H](C)c2ccc(NC(=O)OCc3ccc(Cl)cc3)cc2)c1F` lies strictly below 0.9 µM
A: Not met

###

- measured target: human NAMPT (Homo sapiens (Human), UniProt P43490)
- assay overview: NMN fluorescence biochemical assay (human recombinant NAMPT enzyme assay)
Catalogue of EC50 values
Expressed in µM, but write only the number.

// worked examples, EC50 included
* CN(C)C(=O)N1CCC(CCc2ccc(NC(=O)OCc3cnco3)cc2)CC1 | 21
* CN(C)S(=O)(=O)N1CCC(Cc2ccc(NC(=O)OCc3ccc(Cl)cc3)cc2)CC1 | 0.82
* C[C@H](NC(=O)c1ccnn1C1CCC1)c1ccc(NC(=O)OCc2ccc(Cl)cc2)cc1 | 3.82
* O=C(Cc1ccc(NC(=O)OCc2ccc(Cl)cc2)cc1)N[C@H]1CC[C@H](OC(F)F)CC1 | 2.16
* C[C@H](NC(=O)Cc1ncco1)c1ccc(NC(=O)OCc2ccc(Cl)cc2)cc1 | 10.1

Q: API: value(readout=EC50, system=human NAMPT (Homo sapiens (Human), UniProt P43490)) for record `Cc1nn(C)c(C(=O)N[C@@H](C)c2ccc(NC(=O)OCc3ccc(Cl)cc3)cc2)c1F`
A: 2.24
